# Assay Target: recombinant cynomolgus BCMA Fc(kih) (cynomolgus, UniProt A0A2K5UD97 4-51)
# Sequence (A0A2K5UD97 entry or part of it): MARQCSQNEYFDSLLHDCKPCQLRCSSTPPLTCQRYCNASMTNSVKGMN
# Test Name: SPR one-shot kinetics (ProteOn XPR36), IgG captured from HEK293 supernatant via anti-human F(ab)2, BCMA as analyte
binders and their reported pKd
# reply with the number alone; pKd is -log10 of concentration in mol/L

# Binder, Recorded Number
rows = [
    ("Mab 39 IgG (antibody, V domains shown) VH: EVQLLESGGGLVQPGGSLRLSCAASGFTFTQNAMGWVRQAPGKGLEWVSAISPTGFSTYYADSVKGRFTISRDNSKNTLYLQMNSLRAEDTAVYYCAKVLGWFDYWGQGTLVTVSS VL: EIVLTQSPGTLSLSPGERATLSCRASQSVSEYYLAWYQQKPGQAPRLLIEHASTRATGIPDRFSGSGSGTDFTLTISRLEPEDFAVYYCQQYGYPPDFTFGQGTKVEIK", 9.57),
]

Alright, here's another binder for you.
I'd like to know its pKd. The binder in question is Mab 33 IgG (antibody, V domains shown) VH: EVQLLESGGGLVQPGGSLRLSCAASGFTFYTNAMGWVRQAPGKGLEWVSAINRFGGSTYYADSVKGRFTISRDNSKNTLYLQMNSLRAEDTAVYYCAKVLGWFDYWGQGTLVTVSS VL: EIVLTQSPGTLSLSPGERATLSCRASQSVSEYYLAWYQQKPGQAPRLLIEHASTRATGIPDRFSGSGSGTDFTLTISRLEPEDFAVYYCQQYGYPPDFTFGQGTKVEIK
10.47
